These entries and their values trace back to ChEMBL document CHEMBL1137864.

- tgt: Melanocortin receptor (M3 and M4) (Homo sapiens) (UniProt P32245+P41968)
- method_notes: Ratio of EC50 of Melanocortin 4 receptor to that of Melanocortin 3 receptor
- Assay type: protein assay
Label yes (1) when Ratio is strictly below 30; at or above that, label no (0).

## Task Please let me know if N=C(N)NCCC[C@H](NC(=O)C(Cc1ccccc1)NC(=O)[C@H](Cc1ccc(Cl)cc1)NS(=O)(=O)C(F)(F)F)C(=O)N[C@@H](Cc1c[nH]c2ccccc12)C(N)=O (stereo in doubt) shows Ratio below 30.
## Result yes (1)

## Task Please let me know if N=C(N)NCCC[C@H](NC(=O)C(Cc1ccccc1)NC(=O)[C@H](Cc1ccc(Cl)cc1)NC(=O)COc1ccccc1)C(=O)N[C@@H](Cc1c[nH]c2ccccc12)C(N)=O (stereo in doubt) shows Ratio below 30.
## Result yes (1)

## Task Please let me know if C=CCC(=O)N[C@@H](Cc1ccc(Cl)cc1)C(=O)NC(Cc1ccccc1)C(=O)N[C@@H](CCCNC(=N)N)C(=O)N[C@@H](Cc1c[nH]c2ccccc12)C(N)=O (stereo in doubt) shows Ratio below 30.
## Result no (0)

## Task Please let me know if CCOC(=O)N[C@@H](Cc1ccc(Cl)cc1)C(=O)NC(Cc1ccccc1)C(=O)N[C@@H](CCCN=C(N)N)C(=O)N[C@@H](Cc1c[nH]c2ccccc12)C(N)=O (stereo in doubt) shows Ratio below 30.
## Result no (0)

## Task Please let me know if N=C(N)NCCC[C@H](NC(=O)C(Cc1ccccc1)NC(=O)[C@H](Cc1ccc(Cl)cc1)NC(=O)c1cccs1)C(=O)N[C@@H](Cc1c[nH]c2ccccc12)C(N)=O (stereo in doubt) shows Ratio below 30.
## Result no (0)

====

- tgt: Melanocortin receptor (M3 and M4) (Homo sapiens) (UniProt P32245+P41968)
- method_notes: Ratio of EC50 of Melanocortin 4 receptor to that of Melanocortin 3 receptor
- Type: protein assay
measure_name: Ratio
Answer field: number only, no words.

A selection of reference data follows.
molecule	quantitative_result
N=C(N)NCCC[C@H](NC(=O)C(Cc1ccccc1)NC(=O)[C@H](Cc1ccc(Cl)cc1)NC(=O)c1ccsc1)C(=O)N[C@@H](Cc1c[nH]c2ccccc12)C(N)=O (stereo in doubt)	25
CS(=O)(=O)N[C@@H](Cc1ccc(Cl)cc1)C(=O)NC(Cc1ccccc1)C(=O)N[C@@H](CCCN=C(N)N)C(=O)N[C@@H](Cc1c[nH]c2ccccc12)C(N)=O (stereo in doubt)	16
N=C(N)NCCC[C@H](NC(=O)C(Cc1ccccc1)NC(=O)[C@H](Cc1ccc(Cl)cc1)NC(=O)c1c(F)c(F)c(F)c(F)c1F)C(=O)N[C@@H](Cc1c[nH]c2ccccc12)C(N)=O (stereo in doubt)	8

## Task Name the recorded Ratio for N=C(N)NCCC[C@H](NC(=O)C(Cc1ccccc1)NC(=O)[C@H](Cc1ccc(Cl)cc1)NC(=O)c1ccccc1)C(=O)N[C@@H](Cc1c[nH]c2ccccc12)C(N)=O (stereo in doubt) .
## Result 4

## Task Name the recorded Ratio for CCCCC(=O)N[C@@H](Cc1ccc(Cl)cc1)C(=O)NC(Cc1ccccc1)C(=O)N[C@@H](CCCN=C(N)N)C(=O)N[C@@H](Cc1c[nH]c2ccccc12)C(N)=O (stereo in doubt) .
## Result 3

## Task Name the recorded Ratio for COP(=S)(N[C@@H](Cc1ccc(Cl)cc1)C(=O)NC(Cc1ccccc1)C(=O)N[C@@H](CCCN=C(N)N)C(=O)N[C@@H](Cc1c[nH]c2ccccc12)C(N)=O)OC (stereo in doubt) .
## Result 4

## Task Name the recorded Ratio for CCCC(=O)N[C@@H](Cc1ccc(Cl)cc1)C(=O)NC(Cc1ccccc1)C(=O)N[C@@H](CCCN=C(N)N)C(=O)N[C@@H](Cc1c[nH]c2ccccc12)C(N)=O (stereo in doubt) .
## Result 8

## Task Name the recorded Ratio for N=C(N)NCCC[C@H](NC(=O)C(Cc1ccccc1)NC(=O)[C@H](Cc1ccc(Cl)cc1)NC(=O)C(N)=O)C(=O)N[C@@H](Cc1c[nH]c2ccccc12)C(N)=O (stereo in doubt) .
## Result 5

## Task Name the recorded Ratio for COCC(=O)N[C@@H](Cc1ccc(Cl)cc1)C(=O)NC(Cc1ccccc1)C(=O)N[C@@H](CCCN=C(N)N)C(=O)N[C@@H](Cc1c[nH]c2ccccc12)C(N)=O (stereo in doubt) .
## Result 14

## Task Name the recorded Ratio for N=C(N)NCCC[C@H](NC(=O)C(Cc1ccccc1)NC(=O)[C@H](Cc1ccc(Cl)cc1)NC(=O)CO)C(=O)N[C@@H](Cc1c[nH]c2ccccc12)C(N)=O (stereo in doubt) .
## Result 13

====

- tgt: Melanocortin receptor (M1 and M4) (Homo sapiens) (UniProt P32245+Q01726)
- method_notes: Ratio of EC50 of Melanocortin 4 receptor to that of Melanocortin 1 receptor
- Type: protein assay
Ratio: recorded values
Answer field: number only, no words.

molecule	Ratio
CCC(=O)N[C@@H](Cc1ccc(Cl)cc1)C(=O)NC(Cc1ccccc1)C(=O)N[C@@H](CCCN=C(N)N)C(=O)N[C@@H](Cc1c[nH]c2ccccc12)C(N)=O (stereo in doubt)	12

## Task Name the recorded Ratio for N=C(N)NCCC[C@H](NC(=O)C(Cc1ccccc1)NC(=O)[C@H](Cc1ccc(Cl)cc1)NC(=O)CC(F)(F)F)C(=O)N[C@@H](Cc1c[nH]c2ccccc12)C(N)=O (stereo in doubt) .
## Result 8

## Task Name the recorded Ratio for N=C(N)NCCC[C@H](NC(=O)C(Cc1ccccc1)NC(=O)C(Cc1ccccc1)NC(=O)[C@H](Cc1c[nH]cn1)NC(=O)CCCC(=O)c1ccccc1)C(=O)N[C@@H](Cc1c[nH]c2ccccc12)C(N)=O (stereo in doubt) .
## Result 0.01

## Task Name the recorded Ratio for CS(=O)(=O)N[C@@H](Cc1ccc(Cl)cc1)C(=O)NC(Cc1ccccc1)C(=O)N[C@@H](CCCN=C(N)N)C(=O)N[C@@H](Cc1c[nH]c2ccccc12)C(N)=O (stereo in doubt) .
## Result 1

## Task Name the recorded Ratio for N=C(N)NCCC[C@H](NC(=O)C(Cc1ccccc1)NC(=O)[C@H](Cc1ccc(Cl)cc1)NC(=O)CCC(=O)c1cc(F)cc(F)c1)C(=O)N[C@@H](Cc1c[nH]c2ccccc12)C(N)=O (stereo in doubt) .
## Result 0.4

====

- tgt: Melanocyte-stimulating hormone receptor (Homo sapiens, UniProt Q01726)
- Sequence (Q01726 whole entry): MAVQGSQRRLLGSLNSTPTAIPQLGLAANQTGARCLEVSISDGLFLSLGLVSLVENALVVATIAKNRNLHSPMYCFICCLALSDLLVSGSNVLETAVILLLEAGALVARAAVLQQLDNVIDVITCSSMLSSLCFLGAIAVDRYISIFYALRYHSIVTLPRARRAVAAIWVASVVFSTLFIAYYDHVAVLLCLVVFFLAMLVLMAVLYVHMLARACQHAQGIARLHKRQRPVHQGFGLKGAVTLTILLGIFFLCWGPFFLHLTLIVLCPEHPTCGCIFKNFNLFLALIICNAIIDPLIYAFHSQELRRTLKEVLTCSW
- method_notes: Agonistic activity against human Melanocortin 1 receptor
measure_name: log10(EC50) (log10 of the value in nM)
Note the log scale: values are log10 of EC50 expressed in nM.

A selection of reference data follows.
molecule	quantitative_result
N=C(N)NCCC[C@H](NC(=O)C(Cc1ccccc1)NC(=O)[C@H](Cc1ccc(Cl)cc1)NC(=O)CCCC(=O)c1ccccc1)C(=O)N[C@@H](Cc1c[nH]c2ccccc12)C(N)=O (stereo in doubt)	1.36
N=C(N)NCCC[C@H](NC(=O)C(Cc1ccccc1)NC(=O)[C@H](Cc1ccc(Cl)cc1)NC(=O)c1cccnc1)C(=O)N[C@@H](Cc1c[nH]c2ccccc12)C(N)=O (stereo in doubt)	2.76
CCCCC(=O)N[C@@H](Cc1ccc(Cl)cc1)C(=O)NC(Cc1ccccc1)C(=O)N[C@@H](CCCN=C(N)N)C(=O)N[C@@H](Cc1c[nH]c2ccccc12)C(N)=O (stereo in doubt)	2.64
N=C(N)NCCC[C@H](NC(=O)C(Cc1ccccc1)NC(=O)[C@H](Cc1ccc(Cl)cc1)NC(=O)Cc1ccccc1)C(=O)N[C@@H](Cc1c[nH]c2ccccc12)C(N)=O (stereo in doubt)	2.84

Let us move to another entry and its log10(EC50).
## Task Name the recorded log10(EC50) for N=C(N)NCCC[C@H](NC(=O)C(Cc1ccccc1)NC(=O)[C@H](Cc1ccc(Cl)cc1)NC(=O)c1ccncc1)C(=O)N[C@@H](Cc1c[nH]c2ccccc12)C(N)=O (stereo in doubt) .
## Result 2.73

====

pEC50: recorded values
- tgt: UniProt:Q01726
- method_notes: Agonistic activity against human Melanocortin 1 receptor
- Assay type: functional
The value called pEC50 is obtained by taking minus log10 of the concentration in mol/L.

A selection of reference data follows.
compound	pEC50
CC(=O)N[C@@H](Cc1c[nH]cn1)C(=O)NC(Cc1ccccc1)C(=O)NC(Cc1ccccc1)C(=O)N[C@@H](CCCN=C(N)N)C(=O)N[C@@H](Cc1c[nH]c2ccccc12)C(N)=O (stereo in doubt)	7.89
N=C(N)NCCC[C@H](NC(=O)C(Cc1ccccc1)NC(=O)[C@H](Cc1ccc(Cl)cc1)NC(=O)CCC(=O)c1ccc(F)cc1)C(=O)N[C@@H](Cc1c[nH]c2ccccc12)C(N)=O (stereo in doubt)	6.94
COP(=S)(N[C@@H](Cc1ccc(Cl)cc1)C(=O)NC(Cc1ccccc1)C(=O)N[C@@H](CCCN=C(N)N)C(=O)N[C@@H](Cc1c[nH]c2ccccc12)C(N)=O)OC (stereo in doubt)	5.72
COP(=O)(N[C@@H](Cc1ccc(Cl)cc1)C(=O)NC(Cc1ccccc1)C(=O)N[C@@H](CCCN=C(N)N)C(=O)N[C@@H](Cc1c[nH]c2ccccc12)C(N)=O)OC (stereo in doubt)	6.11
N=C(N)NCCC[C@H](NC(=O)C(Cc1ccccc1)NC(=O)[C@H](Cc1ccc(Cl)cc1)NC(=O)CCCc1ccccc1)C(=O)N[C@@H](Cc1c[nH]c2ccccc12)C(N)=O (stereo in doubt)	6.95
N=C(N)NCCC[C@H](NC(=O)C(Cc1ccccc1)NC(=O)[C@H](Cc1ccc(Cl)cc1)NC(=O)c1c(F)c(F)c(F)c(F)c1F)C(=O)N[C@@H](Cc1c[nH]c2ccccc12)C(N)=O (stereo in doubt)	6.26
CNC(=O)N[C@@H](Cc1ccc(Cl)cc1)C(=O)NC(Cc1ccccc1)C(=O)N[C@@H](CCCN=C(N)N)C(=O)N[C@@H](Cc1c[nH]c2ccccc12)C(N)=O (stereo in doubt)	6.07
N=C(N)NCCC[C@H](NC(=O)C(Cc1ccccc1)NC(=O)[C@H](Cc1ccc(Cl)cc1)NC(=O)COc1ccccc1)C(=O)N[C@@H](Cc1c[nH]c2ccccc12)C(N)=O (stereo in doubt)	6.08
N=C(N)NCCC[C@H](NC(=O)C(Cc1ccccc1)NC(=O)[C@H](Cc1ccc(Cl)cc1)NS(=O)(=O)C(F)(F)F)C(=O)N[C@@H](Cc1c[nH]c2ccccc12)C(N)=O (stereo in doubt)	5.67
N=C(N)NCCC[C@H](NC(=O)C(Cc1ccccc1)NC(=O)[C@H](Cc1ccc(Cl)cc1)NC(=O)c1cccs1)C(=O)N[C@@H](Cc1c[nH]c2ccccc12)C(N)=O (stereo in doubt)	6.05

## Task Name the recorded pEC50 for N=C(N)NCCC[C@H](NC(=O)C(Cc1ccccc1)NC(=O)[C@H](Cc1ccc(Cl)cc1)NC(=O)CO)C(=O)N[C@@H](Cc1c[nH]c2ccccc12)C(N)=O (stereo in doubt) .
## Result 6.30

## Task Name the recorded pEC50 for N=C(N)NCCC[C@H](NC(=O)C(Cc1ccccc1)NC(=O)[C@H](Cc1ccc(Cl)cc1)NC(=O)CC(N)=O)C(=O)N[C@@H](Cc1c[nH]c2ccccc12)C(N)=O (stereo in doubt) .
## Result 6.22

## Task Name the recorded pEC50 for CC(C)(C)C(=O)N[C@@H](Cc1ccc(Cl)cc1)C(=O)NC(Cc1ccccc1)C(=O)N[C@@H](CCCN=C(N)N)C(=O)N[C@@H](Cc1c[nH]c2ccccc12)C(N)=O (stereo in doubt) .
## Result 6.42

## Task Name the recorded pEC50 for CCCC(=O)N[C@@H](Cc1ccc(Cl)cc1)C(=O)NC(Cc1ccccc1)C(=O)N[C@@H](CCCN=C(N)N)C(=O)N[C@@H](Cc1c[nH]c2ccccc12)C(N)=O (stereo in doubt) .
## Result 6.10

## Task Name the recorded pEC50 for COCC(=O)N[C@@H](Cc1ccc(Cl)cc1)C(=O)NC(Cc1ccccc1)C(=O)N[C@@H](CCCN=C(N)N)C(=O)N[C@@H](Cc1c[nH]c2ccccc12)C(N)=O (stereo in doubt) .
## Result 6.30

## Task Name the recorded pEC50 for CN(C)C(=O)N[C@@H](Cc1ccc(Cl)cc1)C(=O)NC(Cc1ccccc1)C(=O)N[C@@H](CCCN=C(N)N)C(=O)N[C@@H](Cc1c[nH]c2ccccc12)C(N)=O (stereo in doubt) .
## Result 5.67

## Task Name the recorded pEC50 for C=CCNC(=O)N[C@@H](Cc1ccc(Cl)cc1)C(=O)NC(Cc1ccccc1)C(=O)N[C@@H](CCCNC(=N)N)C(=O)N[C@@H](Cc1c[nH]c2ccccc12)C(N)=O (stereo in doubt) .
## Result 6.30

## Task Name the recorded pEC50 for N=C(N)NCCC[C@H](NC(=O)C(Cc1ccccc1)NC(=O)[C@H](Cc1ccc(Cl)cc1)NC(=O)c1ccsc1)C(=O)N[C@@H](Cc1c[nH]c2ccccc12)C(N)=O (stereo in doubt) .
## Result 6.17

## Task Name the recorded pEC50 for N=C(N)NCCC[C@H](NC(=O)C(Cc1ccccc1)NC(=O)[C@H](Cc1ccc(Cl)cc1)NC(=O)CC(F)(F)F)C(=O)N[C@@H](Cc1c[nH]c2ccccc12)C(N)=O (stereo in doubt) .
## Result 5.92

## Task Name the recorded pEC50 for N=C(N)NCCC[C@H](NC(=O)C(Cc1ccccc1)NC(=O)[C@H](Cc1ccc(Cl)cc1)NC(=O)C1CC1)C(=O)N[C@@H](Cc1c[nH]c2ccccc12)C(N)=O (stereo in doubt) .
## Result 6.27
